A collection of binders and their measured 100 nM Monkey IL-25-MMH Bound (RU)
Target: T1, monkey IL-25 expressed with a C-terminal myc-myc-hexahistidine tag (M. fascicularis (cynomolgus monkey))
T1 construct: also called monkey IL-25-MMH; MfIL-25-MMH
T1 chain: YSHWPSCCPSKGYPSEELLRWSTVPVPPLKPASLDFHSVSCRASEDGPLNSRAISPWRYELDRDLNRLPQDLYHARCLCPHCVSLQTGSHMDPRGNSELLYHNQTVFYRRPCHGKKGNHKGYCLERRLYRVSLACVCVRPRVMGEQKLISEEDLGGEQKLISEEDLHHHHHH
Experiment: SPR Biacore, captured mAb, 25°C;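 further: Real-time surface plasmon resonance on a Biacore 4000, with IL-25-MMH binding to purified anti-IL-25 antibodies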
Report as a plain number; the unit RU is understood.

Please give the measured 100 nM Monkey IL-25-MMH Bound (RU) for this binder: H4H10883P (antibody, human IgG4, V domains shown) VH: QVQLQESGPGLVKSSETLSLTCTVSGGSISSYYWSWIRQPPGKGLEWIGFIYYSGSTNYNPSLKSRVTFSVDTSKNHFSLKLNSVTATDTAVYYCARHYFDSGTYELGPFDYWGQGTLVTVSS VL: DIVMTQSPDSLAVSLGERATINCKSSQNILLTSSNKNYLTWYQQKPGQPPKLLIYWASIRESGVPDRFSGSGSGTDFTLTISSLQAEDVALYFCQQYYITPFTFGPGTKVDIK
58

# next binder below
If you can, please state the reported 100 nM Monkey IL-25-MMH Bound (RU) value of H4H10876P (antibody, human IgG4, V domains shown) VH: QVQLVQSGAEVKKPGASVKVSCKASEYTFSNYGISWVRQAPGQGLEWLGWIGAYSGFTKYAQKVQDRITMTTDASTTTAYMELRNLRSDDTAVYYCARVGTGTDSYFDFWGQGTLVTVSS VL: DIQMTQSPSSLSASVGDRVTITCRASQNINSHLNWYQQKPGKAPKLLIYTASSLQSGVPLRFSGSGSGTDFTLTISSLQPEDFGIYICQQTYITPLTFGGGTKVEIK .
51
